test_target: rTbHK1 (recombinant T. brucei hexokinase 1)
experiment_summary: rTbHK1 enzyme inhibition assay
Format: biochemical, Trypanosoma brucei
condition_parameters: read-out: TbHK1 IC50; dose-response

>  <smiles_record>
CC(C)(C)c1ccc(C(=O)Nc2cc(Cl)c(Br)cc2C(=O)O)cc1

>  <measurement_unit>
nM

>  <IC50>
980

$$$$
